test system: HOP-92; assay: NCI tumour cell line growth inhibition, 48 h
Active and inactive are the calls of the source. Cut-off read from the data, not from the text of the source: active = GI50 up to about 1.1 µM and inactive = higher.
Entries and their measured GI50 follow.

>>> print(df.to_string())
                                   compound  measure_name       observed_value
0  NCCCCNCCCNC(=O)CNC(=O)CC(O)C(N)CCCC(NC(=O)C(CN)NC(=O)C(O)CNC(=O)CC(N)c1ccc(O)cc1)C(=O)O (stereo not given)          GI50   > 10 µM (inactive)
1  Cc1ccc(/N=N/C(=N/c2ccccc2)c2ccc(N(CCC#N)CCC#N)cc2)cc1          GI50     22 µM (inactive)
2  OCC(O)CNc1ncnc2ccccc12 (stereo not given)          GI50  > 100 µM (inactive)
3  CC(C)N(C(=O)c1cccc(C(=O)N(C(C)C)C(C)C)c1)C(C)C          GI50  > 100 µM (inactive)

# get_value(readout= GI50, system= HOP-92) for CCC1=NC(N/N=C/c2ccccc2O)=N/C1=C\c1ccccc1O 21.1 µM (inactive)

Next up: O=C(/C=C/c1ccccc1)CCN1CCN(CCC(=O)/C=C/c2ccccc2)CC1 19.6 µM (inactive)

Next up: CCOC(=O)C1N(S(=O)(=O)c2ccc(C)cc2)CCC12C(c1ccc(OC)c(OC)c1)=Nc1ccccc12 (stereo not given) 28.5 µM (inactive)

Next up: COC(=O)C(Cc1c(C2Nc3ccccc3C2CC(NC(C)=O)C(=O)OC)[nH]c2ccccc12)NC(C)=O (stereo not given) > 100 µM (inactive)

Next up: CN(NC(=O)c1cccs1)C1=NCCCCN1 > 100 µM (inactive)

Next up: COc1cccc(N2C(=O)CS(=O)(=O)C2c2cccc(Oc3ccccc3)c2)c1 (stereo not given) 12.7 µM (inactive)
